test system: Plasmodium falciparum; assay: Calibr Malaria Delayed Death Assay SOP; format: functional, organism-based
I'd be grateful if you could share measured pIC50 for these entries.
Answers are plain numbers.

Below, each entry is followed by its recorded pIC50 result.
>>> result("CCCOc1ccc2ccccc2c1CN1CC[C@@]2(O)CCNC[C@H]2C1")
6.043
>>> result("Cc1cn2c(n1)C(CNCc1ccc(C)s1)CCC2 (configuration not stated)")
6.227
>>> result("COc1cccc(OC)c1CN1CC(=O)N(c2ccc(C)cc2)CC1C (configuration not stated)")
5.987
>>> result("Clc1ccccc1C1(c2ccnc(-c3ccncc3)n2)CCNCC1")
6.636

Could you report pIC50 for every entry in the following list?
1. Cn1cc(CN2CCCC(CCc3ccccc3C(F)(F)F)C2)cn1 (configuration not stated)
2. O=C(O)C(F)(F)F.c1ccc(NC[C@@H]2CCC[C@@H]3CN(Cc4cccnc4)C[C@@H]32)nc1
3. Cc1ccc(S(=O)(=O)N2CCC(N3CCCCC3)CC2)cc1C
4. CC(NCCN1CCC(N(C)C)CC1)c1ccc(Cl)s1 (configuration not stated)
5. CC1CCCCN1C(=O)c1coc(COc2cccc3cnccc23)n1 (configuration not stated)
6. CCN1CC(c2ccccc2)CC2(CCN(Cc3ncc[nH]3)CC2)C1 (configuration not stated)
7. CC1CN(Cc2ccccc2Cn2cccn2)CCN1C (configuration not stated)
8. CC(C)CNC(=O)C1(Cc2ccccc2-c2cccs2)CCNC1 (configuration not stated)

[6.083, 5.946, 5.751, 6.149, 6.214, 6.147, 6.079, 6.092]

Could you report pIC50 for every entry in the following list?
1. CCC1CN(CC(=O)NCCN2CCCCCC2)c2ccccc2S1 (configuration not stated)
2. c1cncc(-c2ccc3c(c2)CCC32CCNCC2)c1
3. CCc1[nH]c2c(CNc3nc(C)cc(NC)n3)cc(C)cc2c1C
4. CC(C)C(=O)N1CCCC2(CCCN2CC2CCCC2)C1.O=C(O)C(F)(F)F (configuration not stated)
5. CCOC(=O)C1(Cc2ccccc2-c2ccccc2OC)CCNCC1.Cl
6. c1cc(-c2n[nH]cc2-c2ccnc(N3CCCCCC3)n2)ccn1
7. Cc1cnccc1CN1CC[C@H](Oc2cccc(F)c2)[C@@](C)(O)C1
8. OCCN1CCC(CNCc2ccc(Br)cc2)CC1

5.947
5.939
6.194
5.828
6.391
8.34
5.772
6.334
